Target: UniProt P34152
Sequence (P34152 2-1052): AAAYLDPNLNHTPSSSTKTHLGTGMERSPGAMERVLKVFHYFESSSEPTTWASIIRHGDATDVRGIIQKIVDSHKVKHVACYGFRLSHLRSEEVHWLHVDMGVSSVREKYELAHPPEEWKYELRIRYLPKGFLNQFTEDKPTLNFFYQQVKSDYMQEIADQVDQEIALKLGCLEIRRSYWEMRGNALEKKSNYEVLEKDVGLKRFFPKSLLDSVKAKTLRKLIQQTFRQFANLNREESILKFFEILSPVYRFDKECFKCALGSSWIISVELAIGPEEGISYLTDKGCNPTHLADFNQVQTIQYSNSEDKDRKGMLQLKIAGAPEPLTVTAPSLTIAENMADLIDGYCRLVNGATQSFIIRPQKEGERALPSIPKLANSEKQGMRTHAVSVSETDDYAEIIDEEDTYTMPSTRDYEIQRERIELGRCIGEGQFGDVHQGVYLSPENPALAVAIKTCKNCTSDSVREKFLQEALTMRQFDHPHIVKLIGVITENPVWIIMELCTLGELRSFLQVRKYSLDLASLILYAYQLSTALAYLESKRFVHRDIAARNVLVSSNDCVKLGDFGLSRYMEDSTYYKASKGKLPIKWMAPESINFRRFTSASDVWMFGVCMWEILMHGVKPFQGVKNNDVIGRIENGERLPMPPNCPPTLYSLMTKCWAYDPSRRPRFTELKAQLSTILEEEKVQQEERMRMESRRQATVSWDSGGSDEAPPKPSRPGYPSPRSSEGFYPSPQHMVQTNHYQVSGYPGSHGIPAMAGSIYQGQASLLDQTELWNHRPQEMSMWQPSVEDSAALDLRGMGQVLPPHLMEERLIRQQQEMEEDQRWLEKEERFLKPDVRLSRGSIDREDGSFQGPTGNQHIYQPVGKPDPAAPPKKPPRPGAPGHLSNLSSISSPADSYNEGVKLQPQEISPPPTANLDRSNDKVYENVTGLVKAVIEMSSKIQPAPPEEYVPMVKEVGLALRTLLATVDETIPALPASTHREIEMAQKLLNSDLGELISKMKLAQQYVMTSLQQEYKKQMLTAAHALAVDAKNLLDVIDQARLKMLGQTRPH
Assay: Phos IC50 (phosphorylation)
pIC50: −log10 of the molar value.
Measured pIC50 values are reported for all entries that follow.
observable: pIC50

- COc1cc(N2CCOCC2)ccc1Nc1ncc(Cl)c(Nc2ccccc2S(=O)(=O)Cc2ccccc2)n1: 6.44
- CNC1CCN(c2ccc(Nc3ncc(Cl)c(Nc4ccccc4S(=O)(=O)NC(C)C)n3)c(OC)c2)C1 (stereo not shown): 6.70
- CNS(=O)(=O)c1ccccc1Nc1nc(Nc2cccc3[nH]ccc23)ncc1Br: 7.40
- CCS(=O)(=O)c1ccccc1Nc1nc(Nc2ccc(N3CCC(N4CCCCC4)CC3)cc2OC)ncc1Cl: 6.30
- CNS(=O)(=O)c1ccccc1Nc1nc(Nc2cc(N3CCN(C(C)=O)CC3)ccc2OC)ncc1Br: 7.00
- COc1cc(NCC(C)(C)CN(C)C)ccc1Nc1ncc(Cl)c(Nc2ccccc2S(=O)(=O)NC(C)C)n1: 7.22
- COc1cc(N2CCN(C(C)=O)CC2)ccc1Nc1ncc(Cl)c(Nc2ccccc2S(=O)(=O)C2CCCC2)n1: 7.10
- CNS(=O)(=O)c1ccccc1Nc1nc(Nc2cc(Cl)ccc2OC)ncc1Br: 6.38
- CNC(=O)c1cc(F)ccc1Nc1nc(Nc2ccc(N3CCOCC3)cc2OC)ncc1Cl: 6.15
- CNC(=O)c1ccccc1Nc1nc(Nc2ccc(OC3CCN(C)CC3)cc2OC)ncc1Cl: 6.52
- CNS(=O)(=O)c1ccccc1Nc1nc(Nc2cc(C(C)C)ccc2C)ncc1Br: 5.82
- CNC(=O)c1ccccc1Nc1nc(Nc2ccc(N3CCC(O)CC3)cc2OC)ncc1Cl: 6.10
- CNS(=O)(=O)c1ccccc1Nc1nc(Nc2cc(F)ccc2Cl)ncc1Br: 5.77
- CCCS(=O)(=O)c1ccccc1Nc1nc(Nc2ccc(NCCN3CCOCC3)cc2OC)ncc1Cl: 6.49
- CNC(=O)c1c(C)cccc1Nc1nc(Nc2ccc(N3CCC(N4CCCCC4)CC3)cc2OC)ncc1Cl: 6.05

---

Molecular target: Focal Adhesion Kinase (FAK) (Homo sapiens)
Sequence (Q05397 384-706): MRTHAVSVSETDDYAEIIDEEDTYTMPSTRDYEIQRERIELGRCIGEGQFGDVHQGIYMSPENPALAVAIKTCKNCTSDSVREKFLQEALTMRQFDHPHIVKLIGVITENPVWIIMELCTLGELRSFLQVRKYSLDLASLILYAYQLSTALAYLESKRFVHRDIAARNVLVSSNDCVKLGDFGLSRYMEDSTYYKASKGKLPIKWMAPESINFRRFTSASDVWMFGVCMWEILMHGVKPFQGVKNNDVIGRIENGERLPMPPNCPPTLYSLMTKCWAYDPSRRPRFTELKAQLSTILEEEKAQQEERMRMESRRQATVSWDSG
Assay: FAK assay system (Focal Adhesion Kinase inhibition)
Type: biochemical
Details: read-out: FAK IC50
Label T when IC50 is strictly below 5 nM; at or above that, label F.

* CNC(=O)c1ccccc1Nc1nc(Nc2cc(N3CCOCC3)ccc2OC)ncc1Br [Example 8-1] | F
* COc1c(Nc2ncc(Cl)c(Nc3ccccc3S(=O)(=O)NC(C)C)n2)ccc(N2CCOCC2)c1F [Example 19-11] | F
* CCNC(=O)c1ccccc1Nc1nc(Nc2ccc(OC3CCN(C)CC3)cc2OC)ncc1Cl [Example 9-6] | F
* COc1cc(N2CCC(N3CCCC3)CC2)ccc1Nc1ncc(Cl)c(Nc2ccccc2S(=O)(=O)NC(C)C)n1 [Example 19-15] | T
* CCN(CC)C(=O)C1CCCN(c2ccc(Nc3ncc(Cl)c(Nc4ccccc4S(=O)(=O)NC(C)C)n3)c(OC)c2)C1 (centres unmarked) [Example 19-18] | F
* COc1cc(N2CCOCC2)ccc1Nc1ncc(Br)c(Nc2ccccc2S(=O)(=O)N(C)C)n1 [Example 51] | F
* CCOc1ccc(N2CCOCC2)cc1Nc1ncc(Br)c(Nc2ccccc2S(=O)(=O)NC)n1 [Example 3-57] | F
* CCNC(=O)c1ccccc1Nc1nc(Nc2ccc(N3CCOCC3)cc2OC)ncc1Cl [Example 9-1] | F
* CNC1CCN(c2ccc(Nc3ncc(Cl)c(Nc4ccccc4S(=O)(=O)NC(C)C)n3)c(OC)c2)C1 (centres unmarked) [Example 19-1] | T
* CNC(=O)c1ccccc1Nc1nc(Nc2ccc(N3CCNCC3)cc2OC)ncc1Cl [Example 7-26] | T
* CNC(=O)c1ccccc1Nc1nc(Nc2ccc(OCCN3CCOCC3)cc2OC)ncc1Cl [Example 7-4] | F
* CNS(=O)(=O)c1ccccc1Nc1nc(Nc2cc(-c3ccncc3)ccc2C)ncc1Br [Example 3-54] | T
* CNC(=O)c1c(C)cccc1Nc1nc(Nc2ccc(OC3CCN(C)CC3)cc2OC)ncc1Cl [Example 10-1] | F
* CNS(=O)(=O)c1ccccc1Nc1nc(Nc2ccc(N3CCOCC3)cc2OC)ncc1Cl [Example 20-1] | F
* COc1cc(NC2CCN(C)CC2)ccc1Nc1ncc(Cl)c(Nc2ccccc2S(=O)(=O)NC(C)C)n1 [Example 19-32] | T
* CCNC1CCN(c2ccc(Nc3ncc(Cl)c(Nc4ccccc4S(=O)(=O)NC(CC)CC)n3)c(OC)c2)C1 (centres unmarked) [Example 23-4] | T
* CNC(=O)c1ccccc1Nc1nc(Nc2ccc(OCC3CCN(C)CC3)cc2OC)ncc1Cl [Example 7-20] | T
* CCCS(=O)(=O)c1ccccc1Nc1nc(Nc2ccc(N3CCN(C(=O)CC)CC3)cc2OC)ncc1Cl [Example 26-8] | T
* CNS(=O)(=O)c1ccccc1Nc1nc(Nc2cc(OC)c(N3CCN(C)CC3)cc2OC)ncc1Cl [Example 20-13] | F
* COc1cc(OCCN2CCOCC2)ccc1Nc1ncc(Cl)c(Nc2ccccc2S(=O)(=O)NC(C)C)n1 [Example 19-29] | T
* CCCS(=O)(=O)c1ccccc1Nc1nc(Nc2ccc(N3CCC(N4CCCC4)CC3)cc2OC)ncc1Cl [Example 26-29] | T
* CCCS(=O)(=O)c1ccccc1Nc1nc(Nc2ccc(N3CCC(NC)C3)cc2OC)ncc1Cl (centres unmarked) [Example 26-25] | T
